Value source: patent US20170166558A1

Target: sOGT (Homo sapiens)
Sequence (O15294 1-665 isoform O15294-4): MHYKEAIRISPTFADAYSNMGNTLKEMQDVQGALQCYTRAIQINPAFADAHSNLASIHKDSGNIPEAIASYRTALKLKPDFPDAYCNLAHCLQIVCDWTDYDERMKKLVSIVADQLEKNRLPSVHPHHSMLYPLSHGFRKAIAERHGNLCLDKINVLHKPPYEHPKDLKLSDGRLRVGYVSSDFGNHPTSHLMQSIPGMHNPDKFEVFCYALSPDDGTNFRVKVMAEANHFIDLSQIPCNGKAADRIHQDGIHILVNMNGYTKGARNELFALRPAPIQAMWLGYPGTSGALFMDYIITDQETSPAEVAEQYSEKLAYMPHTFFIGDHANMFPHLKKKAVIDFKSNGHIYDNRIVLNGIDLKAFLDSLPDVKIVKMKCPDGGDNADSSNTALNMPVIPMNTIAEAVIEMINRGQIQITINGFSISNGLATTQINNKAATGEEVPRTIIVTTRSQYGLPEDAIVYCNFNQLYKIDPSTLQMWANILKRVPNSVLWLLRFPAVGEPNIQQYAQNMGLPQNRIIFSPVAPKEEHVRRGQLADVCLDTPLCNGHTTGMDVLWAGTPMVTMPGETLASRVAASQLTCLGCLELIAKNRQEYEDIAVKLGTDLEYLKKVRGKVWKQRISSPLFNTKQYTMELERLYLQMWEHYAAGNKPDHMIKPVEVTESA
Assay: Fluorescence polarization displacement screen with fluorescein-linked UDP-GlcNAc analog
Format: binding
Details: 100 μM treatment; read-out: % OGT activity (100 μM treatment)
// boundary case: remaining activity at 100 µM equal to 8% maps to f; strictly smaller maps to t

compound=O=C([C@H](NS(=O)(=O)c1ccc2[nH]c(=O)ccc2c1)c1ccc(Cl)cc1)N(Cc1ccco1)Cc1cccs1 target_of_assay="sOGT (Homo sapiens)" assigned_class=f
compound=O=C([C@@H](NS(=O)(=O)c1ccc2[nH]c(=O)ccc2c1)c1ccc(F)cc1)N(Cc1ccco1)Cc1cccs1 target_of_assay="sOGT (Homo sapiens)" assigned_class=t
compound=O=C([C@H](NS(=O)(=O)c1ccc2[nH]c(=O)ccc2c1)c1ccccc1)N1CCOCC1 target_of_assay="sOGT (Homo sapiens)" assigned_class=f
compound=O=C([C@H](NS(=O)(=O)c1ccc2[nH]c(=O)ccc2c1)c1cccs1)N(Cc1ccco1)Cc1cccs1 target_of_assay="sOGT (Homo sapiens)" assigned_class=t
compound="O=C([C@@H](Cc1ccccc1)NS(=O)(=O)c1ccc2[nH]c(=O)ccc2c1)N(Cc1ccco1)Cc1cccs1 [drawing 149]" target_of_assay="sOGT (Homo sapiens)" assigned_class=f

*Q* Bench note: check whether `COc1ccc([C@@H](NS(=O)(=O)c2ccc3[nH]c(=O)ccc3c2)C(=O)N(Cc2ccco2)Cc2cccs2)cc1` shows remaining activity at 100 µM below 8%
*A* t

*Q* Bench note: check whether `O=C([C@H](NS(=O)(=O)c1ccc2[nH]c(=O)ccc2c1)c1cccc(F)c1)N(Cc1ccco1)Cc1cccs1` shows remaining activity at 100 µM below 8%
*A* t

---

molecular target: sOGT (Homo sapiens, UniProt O15294); assay: Fluorescence polarization displacement screen with fluorescein-linked UDP-GlcNAc analog; format: binding; conditions: 100 μM treatment
READOUT_LABEL: % OGT activity (100 μM treatment)

Example cases with answers are listed next.
compound="O=C(C(NS(=O)(=O)c1ccc2[nH]c(=O)ccc2c1)c1ccccc1C(F)(F)F)N(Cc1ccco1)Cc1cccs1 (centres unmarked) [drawing 121]" readout_label="% OGT activity (100 μM treatment)" observed_measurement=11%
compound="O=C(C(NS(=O)(=O)c1ccc2[nH]c(=O)ccc2c1)c1ccccc1C(F)(F)F)N(Cc1ccco1)Cc1cccs1 (centres unmarked) [drawing 119]" readout_label="% OGT activity (100 μM treatment)" observed_measurement=0.7%
compound="O=C(C1c2ccccc2CCN1S(=O)(=O)c1ccc2[nH]c(=O)ccc2c1)N(Cc1ccco1)Cc1cccs1 (centres unmarked) [drawing 115]" readout_label="% OGT activity (100 μM treatment)" observed_measurement=65%
compound="O=C(C(NS(=O)(=O)c1ccc2[nH]c(=O)ccc2c1)c1ccccc1C(F)(F)F)N(Cc1ccco1)Cc1cccs1 (centres unmarked) [drawing 125]" readout_label="% OGT activity (100 μM treatment)" observed_measurement=38%

% OGT activity (100 μM treatment) recorded for this compound, O=C(C(NS(=O)(=O)c1ccc2[nH]c(=O)ccc2c1)c1cccc(C(F)(F)F)c1)N(Cc1ccco1)Cc1cccs1 (centres unmarked) [drawing 127] , is 29%

% OGT activity (100 μM treatment) recorded for this compound, O=C(C(NS(=O)(=O)c1ccc2[nH]c(=O)ccc2c1)c1ccccc1F)N(Cc1ccco1)Cc1cccs1 (centres unmarked) [drawing 133] , is 24%

% OGT activity (100 μM treatment) recorded for this compound, Cc1cccc(C(NS(=O)(=O)c2ccc3[nH]c(=O)ccc3c2)C(=O)N(Cc2ccco2)Cc2cccs2)c1 (centres unmarked) [drawing 135] , is No inhibition

% OGT activity (100 μM treatment) recorded for this compound, `O=C([C@@H](NS(=O)(=O)c1ccc2[nH]c(=O)[nH]c(=O)c2c1)c1ccccc1)N(Cc1ccco1)Cc1cccs1` , is No inhibition

% OGT activity (100 μM treatment) recorded for this compound, O=C(C(NS(=O)(=O)c1ccc2[nH]c(=O)ccc2c1)c1cccc(C(F)(F)F)c1)N(Cc1ccco1)Cc1cccs1 (centres unmarked) [drawing 128] , is 7.4%

% OGT activity (100 μM treatment) recorded for this compound, O=C(C(NS(=O)(=O)c1ccc2[nH]c(=O)ccc2c1)c1ccc(C(F)(F)F)cc1)N(Cc1ccco1)Cc1cccs1 (centres unmarked) [drawing 122] , is 33%

---

Molecular target: sOGT (Homo sapiens)
Sequence (O15294 1-665 isoform O15294-4): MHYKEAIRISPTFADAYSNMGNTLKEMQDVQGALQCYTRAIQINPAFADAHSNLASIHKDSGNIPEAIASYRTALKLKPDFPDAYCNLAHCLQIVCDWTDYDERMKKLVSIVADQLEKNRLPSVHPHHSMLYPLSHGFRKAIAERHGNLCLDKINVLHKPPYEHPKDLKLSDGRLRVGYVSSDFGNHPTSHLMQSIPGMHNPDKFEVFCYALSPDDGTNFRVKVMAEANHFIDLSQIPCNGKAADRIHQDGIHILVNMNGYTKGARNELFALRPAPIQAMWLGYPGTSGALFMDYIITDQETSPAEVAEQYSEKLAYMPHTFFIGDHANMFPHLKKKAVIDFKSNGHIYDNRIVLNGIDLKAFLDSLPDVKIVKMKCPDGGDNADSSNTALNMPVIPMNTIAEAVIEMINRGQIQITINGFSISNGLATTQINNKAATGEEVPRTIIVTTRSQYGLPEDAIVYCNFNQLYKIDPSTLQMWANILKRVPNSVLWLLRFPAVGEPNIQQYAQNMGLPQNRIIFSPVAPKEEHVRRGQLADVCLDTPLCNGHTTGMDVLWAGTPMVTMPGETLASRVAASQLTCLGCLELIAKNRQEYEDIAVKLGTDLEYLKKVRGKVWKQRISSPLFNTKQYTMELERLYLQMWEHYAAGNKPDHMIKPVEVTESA
Assay: Fluorescence polarization displacement screen with fluorescein-linked UDP-GlcNAc analog
Format: binding
Settings: 100 μM treatment
Reported % OGT activity (100 μM treatment) values are given for each entry in this list.
Entry rule: numbers only, all in %.

Example cases with answers are listed next.
molecule="O=C(C(NS(=O)(=O)c1ccc2[nH]c(=O)ccc2c1)c1ccc(C(F)(F)F)cc1)N(Cc1ccco1)Cc1cccs1 (stereo not shown) [drawing 126]" target_of_assay="sOGT (Homo sapiens)" readout_label="% OGT activity (100 μM treatment)" observed_measurement=54
molecule="O=C(C(NS(=O)(=O)c1ccc2[nH]c(=O)ccc2c1)c1ccccc1F)N(Cc1ccco1)Cc1cccs1 (stereo not shown) [drawing 129]" target_of_assay="sOGT (Homo sapiens)" readout_label="% OGT activity (100 μM treatment)" observed_measurement=0.5

% OGT activity (100 μM treatment) recorded for this molecule, Cc1ccc(C(NS(=O)(=O)c2ccc3[nH]c(=O)ccc3c2)C(=O)N(Cc2ccco2)Cc2cccs2)cc1 (stereo not shown) [drawing 134] , is 66
